Origin of the recorded values: patent US5304556A

tested on: Rabbit platelet aggregation induced by PAF; experiment: Rabbit platelet aggregation inhibitory activity (PAF-induced); format: cell-based, rabbit (New Zealand white); conditions: Oryctolagus cuniculus, read-out: Rabbit Platelet Aggregation Inhibitory activity IC50
pIC50: −log10 of the molar value.
parameter: pIC50

> print(dat)
                                   compound  value
1  Cc1nnc2n1-c1sc(CCC(=O)N3CCOCC3)cc1C(c1ccccc1Cl)=NC2 [WEB2086, reference compound]   7.40
